- testTarget: SST2 (Homo sapiens)
- Construct: host or cells: PathHunter CHO-K1 SST2 cells
- Sequence (P30874 whole entry): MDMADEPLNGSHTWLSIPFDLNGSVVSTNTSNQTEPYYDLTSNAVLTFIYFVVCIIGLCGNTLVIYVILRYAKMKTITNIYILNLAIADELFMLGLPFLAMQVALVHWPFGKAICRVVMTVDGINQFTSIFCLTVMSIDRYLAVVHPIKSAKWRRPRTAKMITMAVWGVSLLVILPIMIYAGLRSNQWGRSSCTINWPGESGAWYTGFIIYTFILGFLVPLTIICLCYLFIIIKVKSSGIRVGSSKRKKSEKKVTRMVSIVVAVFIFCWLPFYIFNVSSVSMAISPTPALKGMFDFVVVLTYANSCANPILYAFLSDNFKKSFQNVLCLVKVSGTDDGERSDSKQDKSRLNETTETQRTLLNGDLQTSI
- assayDetails: PathHunter CHO-K1 SST2 Internalization Assay
- Type: cell-based
- reportedConditions: PathHunter CHO-K1 SST2 cells; 90 min at 37 C; luminescence; read-out: Internalization EC50
pEC50: −log10 of the molar value.
Assign Y to entries whose pEC50 meets or exceeds 8; assign N to the rest.

Q. Is reported pEC50 greater than or equal to 8 here: CC[C@H](C)[C@@H]([C@@H](CC(=O)N1CCC[C@H]1[C@H](OC)[C@@H](C)C(=O)N[C@H](C)[C@@H](O)c1ccccc1)OC)N(C)C(=O)[C@@H](NC(=O)[C@H](C(C)C)N(C)C(=O)OCc1ccc(NC(=O)[C@H](CCCNC(N)=O)NC(=O)[C@@H](NC(=O)CCOCCC(=O)NCCNc2ncc(-c3cc(C)cc(F)c3)c(N3CCC(N)CC3)c2-c2nc3ccc(Cl)cc3[nH]2)C(C)C)c(O[C@@H]2O[C@H](C(=O)N[C@@H](CCCCNC(=O)CCCCc3ccc(I)cc3)C(=O)O)[C@@H](O)[C@H](O)[C@H]2O)c1)C(C)C
A. Y

Q. Can CC[C@H](C)[C@@H]([C@@H](CC(=O)N1CCC[C@H]1[C@H](OC)[C@@H](C)C(=O)N[C@H](C)[C@@H](O)c1ccccc1)OC)N(C)C(=O)[C@@H](NC(=O)[C@H](C(C)C)N(C)C(=O)OCc1ccc(NC(=O)[C@H](CCCNC(N)=O)NC(=O)[C@@H](NC(=O)c2cc(NCCC(=O)NCCNc3ncc(-c4cc(C)cc(F)c4)c(N4CCC(N)CC4)c3-c3nc4ccc(Cl)cc4[nH]3)cc(C(=O)NCC(=O)O)c2)C(C)C)cc1)C(C)C be said to have pEC50 at or above 8?
A. N

Q. Please indicate if the recorded pEC50 for CC[C@H](C)[C@@H]([C@@H](CC(=O)N1CCC[C@H]1[C@H](OC)[C@@H](C)C(=O)N[C@H](C)[C@@H](O)c1ccccc1)OC)N(C)C(=O)[C@@H](NC(=O)[C@H](C(C)C)N(C)C(=O)OCc1ccc(NC(=O)[C@H](CCCNC(N)=O)NC(=O)[C@@H](NC(=O)[C@H](CCCO)NC(=O)CCOCCC(=O)NCCNc2ncc(-c3cc(C)cc(F)c3)c(N3CCC(N)CC3)c2-c2nc3cc(Cl)ccc3[nH]2)C(C)C)c(O[C@@H]2O[C@H](C(=O)NCC(=O)O)[C@@H](O)[C@H](O)[C@H]2O)c1)C(C)C [Compound 213] meets or exceeds 8.
A. Y

Q. Kindly determine if pEC50 recorded for CC[C@H](C)[C@@H]([C@@H](CC(=O)N1CCC[C@H]1[C@H](OC)[C@@H](C)C(=O)N[C@H](C)[C@@H](O)c1ccccc1)OC)N(C)C(=O)[C@@H](NC(=O)[C@H](C(C)C)N(C)C(=O)OCc1ccc(NC(=O)[C@H](CCCNC(N)=O)NC(=O)[C@@H](NC(=O)CCOCCOCCC(=O)NCCNc2ncc(-c3cc(C)cc(F)c3)c(N3CCC(N)CC3)c2-c2nc3ccc(Cl)cc3[nH]2)C(C)C)cc1C(=O)NCCNC(=O)CCOCCOCCOCCOCCC(=O)O)C(C)C is above or exactly 8.
A. Y

Q. Is the recorded value of pEC50 equal to or greater than 8 for this molecule? CC[C@H](C)[C@@H]([C@@H](CC(=O)N1CCC[C@H]1[C@H](OC)[C@@H](C)C(=O)N[C@H](C)[C@@H](O)c1ccccc1)OC)N(C)C(=O)[C@@H](NC(=O)[C@H](C(C)C)N(C)C(=O)OCc1ccc(NC(=O)[C@H](CCCNC(N)=O)NC(=O)[C@@H](NC(=O)[C@@H](CS(=O)(=O)O)NC(=O)CCOCCC(=O)NCCNc2ncc(-c3cc(C)cc(F)c3)c(N3CCC(N)CC3)c2-c2nc3ccc(Cl)cc3[nH]2)C(C)C)cc1C(=O)N1CC(C(=O)O)C1)C(C)C
A. Y

These data points were gathered from patent US20260007758A1.
